Reference source: patent US7312302B2

# Tested on: DEVDase activity (caspase 3/7)
# assay: DEVDase activity in apoptotic thymocyte extract using PhiPhiLux substrate, with protease inhibitors
# Type: biochemical, mouse
# experimental-conditions: apoptotic thymocyte extract, FIG. 5
readout: inhibition of apoptotic DEVDase activity

• CC(=O)N[C@@H](CC(C)C)C(=O)N[C@@H](CC(C)C)C(=O)N[C@H](C=O)CCCNC(=N)N [leupeptin] = lack of inhibition
• CC(C)C[C@H](NC(=O)[C@H]1O[C@@H]1C(=O)O)C(=O)NCCCCN=C(N)N [Compound E64] = lack of inhibition
